Assay: Lipophilicity, log P of the compound
Format: physicochemical
Settings: octanol/water
Recorded logP for the following compounds
Note: the reply should be a number with no unit written.

Example cases with answers are listed next.
[[record]]
compound = "C[C@H]1[C@@H](OCCCCCCCCOC(=O)CCC(=O)O)O[C@@H]2O[C@@]3(C)CC[C@H]4[C@H](C)CC[C@@H]1[C@@]24OO3"
endpoint_result = 5.12

[[record]]
compound = "C[C@H]1[C@@H](OCCCCCCO)O[C@@H]2O[C@@]3(C)CC[C@H]4[C@H](C)CC[C@@H]1[C@@]24OO3"
endpoint_result = 4.38

[[record]]
compound = "C[C@H]1[C@@H](OCCOCCOC(=O)CCC(=O)O)O[C@@H]2O[C@@]3(C)CC[C@H]4[C@H](C)CC[C@@H]1[C@@]24OO3"
endpoint_result = 2.73

[[record]]
compound = "C[C@H]1[C@@H](OCCCCCCCCCCCCOC(=O)CCC(=O)O)O[C@@H]2O[C@@]3(C)CC[C@H]4[C@H](C)CC[C@@H]1[C@@]24OO3"
endpoint_result = 6.78

[[record]]
compound = "C[C@H]1[C@@H](OCCOCCOCCOCCO)O[C@@H]2O[C@@]3(C)CC[C@H]4[C@H](C)CC[C@@H]1[C@@]24OO3"
endpoint_result = 2.52


Read the next record carefully.
The measured logP associated with C[C@H]1[C@@H](OCCOC(=O)CCC(=O)O)O[C@@H]2O[C@@]3(C)CC[C@H]4[C@H](C)CC[C@@H]1[C@@]24OO3 reads 2.89
